- Target or test system: FL-SMARCA2 (full-length human SMARCA2 isoform 1) (Homo sapiens, UniProt P51531)
- Construct: FLAG tag (YKDDDDK) (C); made in house; host or cells: Sf21 insect cells (baculovirus, pFastBacI)
- Sequence (P51531 with tags, fused parts or gaps): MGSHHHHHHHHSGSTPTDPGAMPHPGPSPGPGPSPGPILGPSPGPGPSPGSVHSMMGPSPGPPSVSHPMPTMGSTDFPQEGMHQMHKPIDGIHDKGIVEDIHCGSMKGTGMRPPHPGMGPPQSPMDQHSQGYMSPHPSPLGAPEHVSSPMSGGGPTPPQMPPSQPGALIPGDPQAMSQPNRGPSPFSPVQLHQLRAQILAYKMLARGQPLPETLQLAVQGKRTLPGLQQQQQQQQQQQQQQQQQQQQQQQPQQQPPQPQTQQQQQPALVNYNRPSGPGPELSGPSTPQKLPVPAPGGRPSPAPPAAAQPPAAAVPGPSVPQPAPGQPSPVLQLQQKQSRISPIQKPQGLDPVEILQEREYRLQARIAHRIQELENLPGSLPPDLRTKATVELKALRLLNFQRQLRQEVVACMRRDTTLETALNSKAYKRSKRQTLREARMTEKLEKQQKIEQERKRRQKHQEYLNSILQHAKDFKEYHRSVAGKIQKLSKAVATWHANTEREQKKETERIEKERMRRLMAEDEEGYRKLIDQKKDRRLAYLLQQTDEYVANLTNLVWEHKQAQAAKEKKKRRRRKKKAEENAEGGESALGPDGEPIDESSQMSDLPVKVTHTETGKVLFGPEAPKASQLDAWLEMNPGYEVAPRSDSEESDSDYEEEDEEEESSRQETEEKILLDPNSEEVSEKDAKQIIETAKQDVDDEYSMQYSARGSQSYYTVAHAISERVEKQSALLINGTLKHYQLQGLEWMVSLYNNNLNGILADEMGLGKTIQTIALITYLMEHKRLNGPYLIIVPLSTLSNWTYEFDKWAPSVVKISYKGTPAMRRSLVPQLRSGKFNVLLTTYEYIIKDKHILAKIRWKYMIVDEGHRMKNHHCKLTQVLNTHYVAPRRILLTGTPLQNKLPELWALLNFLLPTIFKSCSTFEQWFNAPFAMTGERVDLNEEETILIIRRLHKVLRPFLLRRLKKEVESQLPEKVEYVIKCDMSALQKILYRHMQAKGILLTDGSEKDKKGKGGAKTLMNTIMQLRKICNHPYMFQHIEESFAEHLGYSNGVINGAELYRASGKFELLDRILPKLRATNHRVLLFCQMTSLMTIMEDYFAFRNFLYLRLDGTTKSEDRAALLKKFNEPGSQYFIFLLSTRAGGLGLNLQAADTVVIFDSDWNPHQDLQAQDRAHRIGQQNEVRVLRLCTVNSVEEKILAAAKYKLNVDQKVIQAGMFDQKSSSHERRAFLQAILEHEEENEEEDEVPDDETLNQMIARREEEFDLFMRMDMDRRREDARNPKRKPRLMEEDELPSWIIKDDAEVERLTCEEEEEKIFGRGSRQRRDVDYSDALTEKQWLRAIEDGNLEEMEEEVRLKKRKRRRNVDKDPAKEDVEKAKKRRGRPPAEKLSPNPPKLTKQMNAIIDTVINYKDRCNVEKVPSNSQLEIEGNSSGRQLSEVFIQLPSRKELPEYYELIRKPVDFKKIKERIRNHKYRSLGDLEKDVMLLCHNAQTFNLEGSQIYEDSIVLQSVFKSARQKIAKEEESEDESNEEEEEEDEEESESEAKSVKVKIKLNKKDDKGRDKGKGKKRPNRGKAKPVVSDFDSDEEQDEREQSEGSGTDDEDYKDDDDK
- Test: SMARCA2 ATPase activity assay (ADP-Glo, chicken mononucleosome substrate)
- Assay type: biochemical
- Settings: Table 3d.1; ATPase assay, enzyme 5 nM, ATP 250 uM, chicken mononucleosome 10 nM, 30 min preincubation; read-out: FL-SMARCA2 IC>50
pIC50: −log10 of the molar value.
Measure: pIC50

Use these answered entries as a reference point.
Exercise: Endpoint output: pIC50 of Cc1cc(C#Cc2cc(C(=O)Nc3cc(C#N)c(=O)n(CC(F)F)c3)sc2Cl)sn1 [Compound 92d] . Value?
Solution: 7.50

Exercise: Endpoint output: pIC50 of N#Cc1cc(C(=O)Nc2cc(F)c(=O)n(CC(F)F)c2)sc1C1CC1 [Compound 87d] . Value?
Solution: 6.01

Exercise: Endpoint output: pIC50 of Cn1cc(C#Cc2cc(C(=O)Nc3cc(C#N)c(=O)n(CC(F)F)c3)sc2Cl)cn1 [Compound 93d] . Value?
Solution: 7.37

Exercise: Endpoint output: pIC50 of O=C(Nc1cc(F)c(=O)n(CC(F)F)c1)c1cc(C#CC2CCNC2)c(Cl)s1 (stereo not shown) [Compound 106d] . Value?
Solution: 5.66

Exercise: Endpoint output: pIC50 of C[C@]1(C#Cc2cc(C(=O)Nc3cc(F)c(=O)n(CC(F)F)c3)sc2Cl)C[C@@H](O)C1 [Compound 136d] . Value?
Solution: 7.38

A: CCn1nc(NC(=O)c2cc(Cl)c(Cl)n2C)ccc1=O [Compound 16d]
B: O=C(Nc1cc(F)c(=O)n(CC(F)F)c1)c1cc(C#CC2OCCCO2)c(Cl)s1 [Compound 101d]
C: NCCOCC#Cc1cc(C(=O)Nc2cc(F)c(=O)n(CC(F)F)c2)sc1Cl [Compound 111d]
Exercise: Order the 3 compounds from highest to lowest pIC50. Hello, could you send the labels back in the order asked? Thank you.
Solution: B, C, A

a: O=C(Nc1cc(F)c(=O)n(CC(F)F)c1)c1cc(C#CCn2ccnc2)c(Cl)s1 [Compound 116d]
b: O=C(Nc1cc(F)c(=O)n(CC(F)F)c1)c1cc(C#CC2CCn3cnnc3C2)c(Cl)s1 (stereo not shown) [Compound 119d]
c: O=C(Nc1cc(F)c(=O)n(CC(F)F)c1)c1cc(Cl)c(C#CCO)s1 [Compound 52d]
d: O=C(Nc1cc(F)c(=O)n(CC(F)F)c1)c1cc(C#Cc2nncs2)c(Cl)s1 [Compound 130d]
e: Cc1sc(C(=O)Nc2cc(F)c(=O)n(CC(F)F)c2)cc1C#N [Compound 81d]
Exercise: Hey, can you sort those compounds up there by pIC50, smallest first? Hello, could you send the labels back in the order asked? Thank you.
Solution: c, b, a, e, d

1: O=C(Nc1cc(F)c(=O)n(CC(F)F)c1)c1cc(OC(F)(F)F)c(C(F)(F)F)s1 [Compound 89d]
2: O=C(Nc1cc(F)c(=O)n(CC(F)F)c1)c1cc(C#CCn2cncn2)c(Cl)s1 [Compound 127d]
Exercise: Would you mind telling me which has the lower recorded pIC50 between 1 and 2 ? Please indicate the selected item by its label.
Solution: 2
(2: 6.23, 1: 6.73)

P: CC(F)(F)c1sc(C(=O)Nc2cc(F)c(=O)n(CC(F)F)c2)cc1C#N [Compound 83d]
Q: N#Cc1sc(C(=O)Nc2cc(F)c(=O)n(CC(F)F)c2)cc1C#CC1CCOCC1 [Compound 102d]
Exercise: For the two items P and Q , which reports the higher pIC50 value? Please indicate the selected item by its label.
Solution: Q
(Q: 7.71, P: 6.33)

P: O=C(Nc1ccc(=O)n(CC(F)(F)F)n1)c1cnc(Cl)s1 [Compound 23d]
Q: CNC(=O)c1ncc(C#Cc2cc(C(=O)Nc3cc(F)c(=O)n(CC(F)F)c3)sc2Cl)o1 [Compound 67d]
R: N#Cc1cc(C(=O)Nc2cc(F)c(=O)n(CC(F)F)c2)sc1C1(F)CC1 [Compound 94d]
Exercise: Order the 3 compounds from highest to lowest pIC50. Hello, could you send the labels back in the order asked? Thank you.
Solution: Q, R, P
(Q: 7.83, R: 5.75, P: 4.90)
